Provenance of the data: patent US20230390319A1

test protocol: PK profiles after IV and PO administration to BALB/c mice
Format: in vivo
conditions used: BALB/c, mouse, blood; PO 20.0 mg/kg, individual animals
Source text: The pharmacokinetics and oral bioavailability of Compound 42 were investigated in mice following single intravenous (IV) injection and oral administration (PO).
endpoint label: Tmax (h)
Number in h, nothing else.

Task: Can you look up the measured Tmax of CC(=O)c1ccc(-c2cc(C(=O)c3ccc(C(F)(F)F)cc3)n3ccccc23)cc1 for me?
Output: 1

----------
test protocol: PK profiles after IV and PO administration to BALB/c mice
Type: in vivo
conditions used: BALB/c, mouse, blood, iv, 5 mg/kg, IV administration; read-out: mean blood clearance
Source text: The pharmacokinetics and oral bioavailability of Compound 42 were investigated in mice following single intravenous (IV) injection and oral administration (PO).
endpoint label: clearance (mL/min/kg)
Number in mL/min/kg, nothing else.

Task: Can you look up the measured clearance of CC(=O)c1ccc(-c2cc(C(=O)c3ccc(C(F)(F)F)cc3)n3ccccc23)cc1 for me?
Output: 22.7

----------
Test system: THP-1 cells
test protocol: Cell viability assay (CellTiter Clo) in THP-1 cells
Type: cell-based, Human
conditions used: THP-1 cells, 20 μM of each compound, co-treated with cGAMP (1 μg/ml)
Recorded Normalized cell viability for the following molecules
Just the number.

These recorded examples may help you get a feel for the data.
{"smiles": "CCN(CC)c1ccc(C(=O)c2cc(-c3ccccc3)c3cc(C(C)=O)ccn23)cc1", "tested target": "THP-1 cells", "Normalized cell viability": 1.34}
{"smiles": "CCN(CC)c1ccc(C(=O)c2cc(-c3ccc(OC)cc3)c3cc(C(C)=O)ccn23)cc1", "tested target": "THP-1 cells", "Normalized cell viability": 1.18}
{"smiles": "CC(=O)c1ccc(-c2cc(C(C)=O)n3ccccc23)cc1", "tested target": "THP-1 cells", "Normalized cell viability": 1.10}
{"smiles": "COc1ccc(-c2cc(C(=O)c3ccccc3)n3ccc(C(F)(F)F)cc23)cc1", "tested target": "THP-1 cells", "Normalized cell viability": 1.03}
{"smiles": "O=C(c1ccccc1)c1cc(-c2ccc(C(F)(F)F)cc2)c2ccccn12", "tested target": "THP-1 cells", "Normalized cell viability": 1.25}
{"smiles": "COc1ccc(C(=O)c2cc(-c3ccccc3)c3ccccn23)cc1", "tested target": "THP-1 cells", "Normalized cell viability": 1.18}

Task: Can you look up the measured Normalized cell viability of COc1ccc(C(=O)c2cc(-c3ccccc3)c3cc(C(C)=O)ccn23)cc1 for me?
Output: 1.22

Task: Next up: O=C(c1ccccc1)c1cc(-c2ccc(C(F)(F)F)cc2)c2cc(C(F)(F)F)ccn12
Output: 1.19

Task: Next up: CC(=O)c1cc(-c2ccc(N(C)C)cc2)c2ccccn12
Output: 1.30

Task: Next up: CCN(CC)c1ccc(C(=O)c2cc(-c3ccccc3)c3ccccn23)cc1
Output: 1.01

Task: Next up: CC(=O)c1ccc(-c2cc(C(C)=O)n3ccc(C(F)(F)F)cc23)cc1
Output: 0.75

Task: Next up: CC(=O)c1ccn2c(C(C)=O)cc(-c3ccc(N(C)C)cc3)c2c1
Output: 1.16

Task: Next up: COc1ccc(C(=O)c2cc(-c3ccc(N(C)C)cc3)c3ccccn23)cc1
Output: 1.24

Task: Next up: O=C(c1ccc(C(F)(F)F)cc1)c1cc(-c2ccc(C(F)(F)F)cc2)c2ccccn12
Output: 1.25
